Cited source: patent US8957093B2

# IC50 per entry
experimental system: GST-PPARG-LBD (Homo sapiens (Human), UniProt P37231)
Sequence (P37231 238-503): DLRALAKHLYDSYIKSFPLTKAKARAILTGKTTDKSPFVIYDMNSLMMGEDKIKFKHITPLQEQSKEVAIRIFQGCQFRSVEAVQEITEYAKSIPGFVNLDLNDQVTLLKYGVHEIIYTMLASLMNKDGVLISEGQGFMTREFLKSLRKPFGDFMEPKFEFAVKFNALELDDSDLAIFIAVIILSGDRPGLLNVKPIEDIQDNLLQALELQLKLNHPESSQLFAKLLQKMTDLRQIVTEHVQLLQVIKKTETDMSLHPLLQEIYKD
assay: Lanthascreen PPARG competitive binding assay (Invitrogen, TR-FRET)
conditions: Lanthascreen PPARG competitive binding; inc = incomplete curve; NA = not active; read-out: IC50 (nM) Lantha
Procedure: Lanthascreen PPARG Competitive Binding Assay (Invitrogen) The assay was performed according to manufacturer protocol. […] Experiment was performed in triplicate, and incubated for 2 hours in the dark prior to assay read in Perkin Elmer ViewLux ultra HTS microplate reader. FRET signal was measured by excitation at 340 nm and emission at 520 nm for fluorescein and 490 nm for terbium. Fold change over DMSO was calculated using GraphPad Prism Software (La Jolla, Calif.) by calculating 520 nm/490 nm ratio. […]
Number in nM, nothing else.

See these solved cases before continuing.
[[record]]
sample_smiles = "Cc1c(C)n(Cc2ccc(-c3ccccc3C(=O)O)cc2)c2ccc(C(=O)N[C@@H]3C[C@H]3c3ccccc3)cc12"
property_name = "IC50"
observed_result = 22

[[record]]
sample_smiles = "Cc1c(C)n(Cc2ccc(-c3ccccc3C(=O)O)cc2)c2ccc(C(=O)N[C@@H](C)c3cccc(Br)n3)cc12"
property_name = "IC50"
observed_result = 15

[[record]]
sample_smiles = "Cc1c(C)n(Cc2ccc(-c3ccccc3C(=O)NO)cc2)c2ccc(C(=O)N[C@@H](C)c3cccc(C(C)C)c3)cc12"
property_name = "IC50"
observed_result = 77


Now examine the next entry.
Exercise: Please report the recorded IC50 for Cc1cccc([C@H](C)NC(=O)c2ccc3c(c2)c(C)c(C)n3Cc2ccc(-c3ccccc3C(=O)O)cc2)c1 .
Key: 11

====

experimental system: Gal-4-PPAR (human PPAR LBD fused to GAL4 DNA-binding domain) (Homo sapiens (Human))
assay: GAL4-PPARG LBD / UAS-luciferase transactivation assay in HEK 293T cells
Type: cell-based
conditions: GAL4 transactivation, HEK 293T cells; NA = not active; read-out: EC50 (nM) GAL4
I'd appreciate it if you marked entries Condition met when EC50 is lower than 400 nM and Condition not met when it is not.

[[record]]
compound = "Cc1c(C)n(Cc2ccc(-c3ccccc3C(=O)O)cc2)c2ccc(C(=O)N[C@@H](C)c3cc(C4CC4)ccn3)cc12 [Example 266]"
assigned_category = "Condition not met"

[[record]]
compound = "Cc1c(C)n(Cc2ccc(-c3ccccc3C(=O)O)cc2)c2ccc(C(=O)N[C@@H](C)c3cccc4ccccc34)cc12 [Example 152]"
assigned_category = "Condition not met"

[[record]]
compound = "Cc1c(C)n(Cc2ccc(-c3ccccc3C(=O)O)cc2)c2ccc(C(=O)N[C@@H](C)c3ccnc4ccccc34)cc12 [Example 149]"
assigned_category = "Condition not met"

[[record]]
compound = "Cc1c(C)n(Cc2ccc(-c3ccccc3C(=O)O)cc2)c2ccc(C(=O)N[C@@H](C)c3ccc(Cl)c(C(F)(F)F)c3)cc12 [Example 222]"
assigned_category = "Condition met"

[[record]]
compound = "Cc1c(C)n(Cc2ccc(-c3ccccc3C(=O)O)cc2)c2ccc(C(=O)N[C@@H](C)[C@@H]3CCN(C(=O)OCc4ccccc4)C3)cc12 [Example 240]"
assigned_category = "Condition not met"

[[record]]
compound = "Cc1cc(Cl)ccc1[C@H](C)NC(=O)c1ccc2c(c1)c(C)c(C)n2Cc1ccc(-c2ccccc2C(=O)O)cc1 [Example 226]"
assigned_category = "Condition met"

[[record]]
compound = "COc1cc(C(F)(F)F)ccc1[C@@H](C)NC(=O)c1ccc2c(c1)c(C)c(C)n2Cc1ccc(-c2ccccc2C(=O)O)cc1 [Example 224]"
assigned_category = "Condition met"

[[record]]
compound = "Cc1c(C)n(Cc2ccc(-c3ccccc3C(=O)O)cc2)c2ccc(C(=O)N[C@@H](C)c3ccc(C(F)(F)F)cc3)cc12 [Example 154]"
assigned_category = "Condition not met"


Exercise: Confirm or reject: EC50 of Cc1c(C)n(Cc2ccc(-c3ccccc3C(=O)O)cc2)c2ccc(C(=O)NCc3ccc(Cl)cc3Cl)cc12 [Example 168] lies strictly below 400 nM
Key: Condition not met

Exercise: For this compound, is EC50 lower than 400 nM? Cc1c(C)n(Cc2ccc(-c3ccccc3C(=O)O)cc2)c2ccc(C(=O)N[C@@H](C)c3ccncc3Cl)cc12 [Example 148]
Key: Condition not met

Exercise: Does Cc1c(C)n(Cc2ccc(-c3ccccc3C(=O)O)cc2)c2ccc(C(=O)N[C@@H](C)c3ccnc(C4CC4)c3)cc12 [Example 268] have EC50 strictly under 400 nM?
Key: Condition not met

Exercise: Determine if Cc1c(C)n(Cc2ccc(-c3ccccc3C(=O)O)cc2)c2ccc(C(=O)N[C@@H](C)C3CCCCC3)cc12 [Example 212] shows EC50 strictly lower than 400 nM.
Key: Condition met

Exercise: Decide: EC50 of Cc1c(C)n(Cc2ccc(-c3ccccc3C(=O)O)cc2)c2ccc(C(=O)N[C@@H](C)c3ccc(C4CC4)nc3)cc12 [Example 263] strictly below 400 nM?
Key: Condition not met

Exercise: Bench note: check whether Cc1c(C)n(Cc2ccc(-c3ccccc3C(=O)O)cc2)c2ccc(C(=O)N[C@@H](C)c3c(F)ccc(F)c3F)cc12 [Example 236] shows EC50 below 400 nM
Key: Condition met

Exercise: Strictly below 400 nM in EC50? Cc1c(C)n(Cc2ccc(-c3ccccc3C(=O)O)cc2)c2ccc(C(=O)N[C@@H](C)c3ccc(OC(C)C)cc3)cc12 [Example 201]
Key: Condition not met

Exercise: Say whether its EC50 is strictly beneath 400 nM. Entry: Cc1c(C)n(Cc2ccc(-c3ccccc3C(=O)O)cc2)c2ccc(C(=O)N[C@H](C)c3ccccc3C(F)(F)F)cc12 [Example 207]
Key: Condition not met

Exercise: Here's an entry: Cc1c(C)n(Cc2ccc(-c3ccccc3C(=O)O)cc2)c2ccc(C(=O)N[C@@H](C)c3ccc4c(c3)CCO4)cc12 [Example 218] . Is its EC50 below 400 nM?
Key: Condition not met

Exercise: Is it true that EC50 reported for Cc1c(C)n(Cc2ccc(-c3ccccc3C(=O)O)cc2)c2ccc(C(=O)N[C@@H](C)c3ccccc3C(F)(F)F)cc12 [Example 208] is less than 400 nM?
Key: Condition met

Exercise: Lab note: confirm whether the reported EC50 for this compound is below 400 nM, equality not counting. compound: COc1cccc([C@@H](C)NC(=O)c2ccc3c(c2)c(C)c(C)n3Cc2ccc(-c3ccccc3C(=O)O)cc2)c1 [Example 161]
Key: Condition met

Exercise: Does the reported EC50 of the following compound sit strictly below 400 nM? Cc1c(C)n(Cc2ccc(-c3ccccc3C(=O)O)cc2)c2ccc(C(=O)N[C@H](C)c3c(Cl)cccc3Cl)cc12 [Example 141]
Key: Condition not met
